tested on: CAKI-1 renal; assay: NCI tumour cell line growth inhibition, 48 h
Listing of recorded TGI by entry.

# compound, TGI
records = [
    ("O=C(O)c1cc(CCc2ccc(O)c(O)c2)ccc1O", "> 100 µM"),
    ("COc1cc(CN=c2nc(N(C)C)ss2)cc(OC)c1OC", "> 10 µM"),
    ("O=C1CSCC(=O)Nc2ccccc2N1", "> 100 µM"),
    ("Brc1ccc(C2=NCSC(c3ccc(Br)cc3)=N2)cc1", "> 100 µM"),
    ("O=C(Cc1ccccc1)NN1C(=O)C(Cl)C1c1ccc(Cl)cc1 (centres undefined)", "> 100 µM"),
]

// query Data request, read-out TGI, for "Cc1cccc(Nc2nc3ccccc3nc2NS(=O)(=O)c2ccc(N)cc2)c1"
// result > 100 µM

// query # repeat for C=C(Br)C(C)(Cl)CCC(Br)C(C)(C)Br (centres undefined)
// result > 100 µM

// query # repeat for "C/C(=N/NC(=O)c1ccncc1)C(F)(F)F"
// result > 100 µM

// query # repeat for CC(=O)OC(C)(C)C1CC[C@]2(C)/C=C/C(C)C[C@@H](O)/C=C(\C)CC(O)C12 (some centres undefined)
// result > 100 µM

// query # repeat for "CCC(=C(c1ccc(OCCN2CCCCC2)cc1)c1ccc(OCCN2CCCCC2)cc1)c1ccc(Cl)cc1"
// result > 16.7 µM

// query # repeat for "Fc1ccc(Nc2nc(Cl)c3[nH]cnc3n2)cc1Cl"
// result > 100 µM

// query # repeat for "O=C(CCCc1ccc(N(CCCl)CCCl)cc1)NCc1ccccc1"
// result 14.4 µM

// query # repeat for "COc1ccc2c(c1)/C(=C/c1c(O)[nH]c(=S)[nH]c1=O)C=N2"
// result > 100 µM

// query # repeat for CC(C)(C)N(Cc1ccccc1)C(=O)/C=C\S(=O)c1ccccc1 (centres undefined)
// result 18.4 µM

// query # repeat for "Cc1cccc2cc(/C=C/C(=O)/C=C/c3ccc(Cl)cc3)c(=O)[nH]c12"
// result > 100 µM

// query # repeat for Cc1ccc(S(=O)c2ccccc2[N+](=O)[O-])cc1 (centres undefined)
// result > 100 µM

// query # repeat for "Cc1ccc(S(=O)(=O)n2cc(/C=C/C#N)c(-c3cn(S(=O)(=O)c4ccc(C)cc4)cc3-c3cn(S(=O)(=O)c4ccc(C)cc4)cc3/C=C/C#N)c2)cc1"
// result > 100 µM

// query # repeat for Clc1ccc(OCC2NC3CCC2CC3)cn1 (centres undefined)
// result > 100 µM

// query # repeat for "Cc1ccc(S(=O)(=O)NNC(=O)Nc2cccc(C(F)(F)F)c2)cc1"
// result > 100 µM

// query # repeat for "O=C1C=C(Nc2ccccc2)c2ccccc2C1=O"
// result 13.7 µM

// query # repeat for "O=C1c2cc(Br)ccc2-c2ccc3c4ccc5c6c(ccc(c7ccc1c2c73)c64)C(=O)c1cc(Br)ccc1-5"
// result > 100 µM

====

Listing of recorded TGI by entry.
tested on: SNB-75 CNS; test: NCI tumour cell line growth inhibition, 48 h

# compound, test.result
data = [
    ("COc1ccc(C(=O)C(C(=O)CCC(=O)Nc2ccc(Cl)c(Cl)c2)c2ccc(OC)cc2)cc1 (stereo not given)", "> 100 µM"),
    ("CCNC1=C(NC(=O)c2ccc(F)cc2)C(=O)c2ccccc2C1=O", "> 100 µM"),
    ("O=C(Cc1ccccc1)NN1C(=O)C(Cl)C1c1ccc(Cl)cc1 (stereo not given)", "> 100 µM"),
    ("CC(C)(C)C(=O)/C=C(\\OB(F)F)C(C)(C)C", "> 100 µM"),
    ("O=C1NC(=O)C(c2c[nH]c3ccccc23)=C1c1c[nH]c2ccccc12", "> 25 µM"),
]

// query Data request, read-out TGI, for "CCOC(=O)c1noc2c1CCc1c-2cn(Cc2ccc(OC)cc2)c1-c1cc(OC)c(OC)c(OC)c1"
// result > 100 µM

// query # repeat for "CN1CCN(c2cc3[nH]c4cc(O)cc(O)c4c(=O)c3cc2N)CC1"
// result 45.1 µM

// query # repeat for "COc1ccc(-c2nc3sc(-c4cc(OC)c(OC)c(OC)c4)nn3c2/C=C2/C(=O)Nc3ccc(F)cc32)cc1"
// result 22.6 µM

// query # repeat for CC1CCCCCC(=O)c2c(O)cc(O)cc2CC(=O)O1 (stereo not given)
// result > 100 µM

// query # repeat for Cc1c(C(Cc2ccccc2N(C)C(=O)/C=C\C(=O)O)c2c[nH]c3ccccc23)c2ccccc2n1C (stereo not given)
// result 33.7 µM

====

Listing of recorded TGI by entry.
test system: SN12C renal; experiment: NCI tumour cell line growth inhibition, 48 h

# molecule, TGI
data = [
    ("Cc1c(Cl)cccc1C(=O)Nc1nc2c(s1)CN(C(=O)Nc1cccc(C(F)(F)F)c1)CC2", "> 50 µM"),
    ("CC(C)=CCC/C(C)=C/CC/C(C)=C/CSC[C@H](NC(=O)CCCCCN1CCN(C)CC1)C(=O)NC1CCCCCC1", "4.51 µM"),
    ("CC(C)(C)C(=O)/C=C(\\OB(F)F)C(C)(C)C", "> 100 µM"),
    ("CCN1CCN(CCC(=O)Nc2cccc(-n3cc(-c4ccncc4)c(-c4ccc(Cl)c(OC)c4)n3)c2)CC1", "2.88 µM"),
    ("CC(=O)OC(C)(C)C1CC[C@]2(C)/C=C/C(C)C[C@@H](O)/C=C(\\C)CC(O)C12 (some centres not stated)", "> 100 µM"),
]

// query Data request, read-out TGI, for "O=C(O)CN1CCSc2ccccc2CN(CC(=O)O)CCSc2ccccc2C1"
// result > 100 µM

====

tested on: UACC-62 melanoma; test: NCI tumour cell line growth inhibition, 48 h
Listing of recorded TGI by entry.

Some solved cases for reference:
# compound, TGI
records = [
    ("Cc1ccc(N)c(S)c1", "32.7 µM"),
    ("Cc1ccc2c(c1C)C(=O)C1(C2)Cc2ccc3c(c2C1=O)CCC3 (centres undefined)", "> 100 µM"),
    ("NC(N)=N/N=C\\c1c(-c2cccc([N+](=O)[O-])c2)nc2sccn12", "79 µM"),
    ("COc1nc(NC2OC(COC(C)=O)C(OC(C)=O)C(OC(C)=O)C2OC(C)=O)c(N=CC=Nc2c(NC3OC(COC(C)=O)C(OC(C)=O)C(OC(C)=O)C3OC(C)=O)nc(OC)[nH]c2=O)c(=O)[nH]1 (centres undefined)", "> 100 µM"),
    ("Brc1ccc(C2=NCSC(c3ccc(Br)cc3)=N2)cc1", "29.8 µM"),
]

// query Data request, read-out TGI, for "O=C(NCc1cn(Cc2cccc(Oc3ccccc3)c2)nn1)c1cccnc1Nc1ccc(F)cc1"
// result > 100 µM

// query # repeat for CC1CCCCCC(=O)c2c(O)cc(O)cc2CC(=O)O1 (centres undefined)
// result > 100 µM

// query # repeat for CC(=O)OCC1OC(N2C(=O)[C@@H](Oc3ccccc3)[C@H]2/C=C/c2ccccc2)C(OC(C)=O)C(OC(C)=O)C1OC(C)=O (some centres undefined)
// result > 100 µM

// query # repeat for "Nc1c(C(=O)Nc2cccc(Cl)c2)sc2nc3c(cc12)C(=O)CCC3"
// result > 100 µM

====

test system: SF-539 CNS; assay: NCI tumour cell line growth inhibition, 48 h
assay.endpoint: TGI

Some solved cases for reference:
# compound, TGI
data = [
    ("O=C1CSC(c2c[nH]c3ccccc23)N1c1cccc(Cl)c1 (stereo not given)", "> 100 µM"),
    ("NC1=C(O)c2cccc3cccc(c23)C1=O", "> 100 µM"),
    ("COc1ccc2c(c1)[C@@H](NC(C)=O)CCc1cc(OC)c(OC)c(OC)c1-2", "< 0.0154 µM"),
    ("COC(=O)C(Cc1ccccc1)NC(=O)CSc1nnc(COc2ccc(Cl)cc2)n1-c1ccccc1 (stereo not given)", "51.3 µM"),
    ("CCOC(=O)c1nc2ccccc2nc1Oc1cc(OC)cc(OC)c1", "> 100 µM"),
]

// query Data request, read-out TGI, for "O=C(CCc1n[nH]c(=S)o1)Nc1cc(Cl)ccc1Cl"
// result > 100 µM

// query # repeat for "O=C1NN2CC(c3ccccc3)=NN=C2c2ccccc21"
// result 56.8 µM

// query # repeat for "CC1=C(CCCOC(=O)[C@H](N)CC(C)C)C2=C(C)C3(CC3)[C@@](C)(O)C(=O)C2=C1"
// result 4.25 µM

// query # repeat for C[N+]1(C)C2CC(OC(=O)C(CO)c3ccccc3)CC1C1OC12 (stereo not given)
// result > 100 µM

// query # repeat for "O=C(CNc1ccccc1[N+](=O)[O-])Nn1cnc2ccc(S(=O)(=O)Nc3ccccc3[N+](=O)[O-])cc2c1=O"
// result > 100 µM

// query # repeat for "CCC(=C(c1ccc(OCCN2CCCCC2)cc1)c1ccc(OCCN2CCCCC2)cc1)c1ccc(Cl)cc1"
// result 5.02 µM

The reported numbers originate from PubChem BioAssay (NCI).
